Assay: 24 hour pharmacokinetic analysis of serum cannabinoids after oral CBD/CBDA rich hemp paste
Details: both, in vivo, po, 1 g of paste

Molecule | MRT, h
CCCCCc1cc(O)c(C/C=C(\C)CCC=C(C)C)c(O)c1C(=O)O [CBGA, cannabigerolic acid] | 1.5

---

Assay: in vivo
Settings: both, in vivo, po

Compound | Scale Unit | Tmax
CCCCCc1cc(O)c(C/C=C(\C)CCC=C(C)C)c(O)c1 [CBG, cannabigerol] | h | 2

---

Test: 24 hour pharmacokinetic analysis of serum cannabinoids after oral CBD/CBDA rich hemp paste
Conditions: both, in vivo, po, 1 g of paste
Experimental: Eight cats from a contract research laboratory (Summit Ridge Farms, Gibson, PA) were utilized for this experiment. 4 spayed female cats and 4 neutered male cats were used. […] The cat population ranged from 4.1 kg to 5.4 kg (mean weight 4.7 kg). […] During the 1-week trial examination of all cats were assessed at the 1 and 4 hour time point after morning dosing. […] All blood parameters measured were performed at the Cornell University Diagnostic Laboratory. […]
Measured AUC(0-t) by item
Property Label: AUC(0-t) (ng·h/mL)

Compound | Property Label | Value Measured
CCCCCc1cc(O)c(C/C=C(\C)CCC=C(C)C)c(O)c1C(=O)O [CBGA, cannabigerolic acid] | AUC(0-t) | 34.1
C=C(C)[C@@H]1CCC(C)=C[C@H]1c1c(O)cc(CCCCC)c(C(=O)O)c1O [CBDA, cannabidiolic acid] | AUC(0-t) | 2640
C=C(C)[C@@H]1CCC(C)=C[C@H]1c1c(O)cc(CCCCC)cc1O [CBD, cannabidiol, reference compound] | AUC(0-t) | 908

---

Experiment: 24 hour pharmacokinetic analysis of serum cannabinoids after oral CBD/CBDA rich hemp paste
Conditions: cats, predicted steady state from one compartment model, mean ± SD
Property Label: Css Ave (calculated predicted 5 half-life mean serum concentration) (ng/mL)

Molecule | Value Measured
CCCCCc1cc(O)c2c(c1)OC(C)(C)[C@@H]1CCC(C)=C[C@@H]21 [THC, Δ9-tetrahydrocannabinol, reference compound] | 11.9
CCCCCc1cc(O)c(C/C=C(\C)CCC=C(C)C)c(O)c1C(=O)O [CBGA, cannabigerolic acid] | 4.8
C=C(C)[C@@H]1CCC(C)=C[C@H]1c1c(O)cc(CCCCC)cc1O [CBD, cannabidiol, reference compound] | 102.1
C=C(C)[C@@H]1CCC(C)=C[C@H]1c1c(O)cc(CCCCC)c(C(=O)O)c1O [CBDA, cannabidiolic acid] | 204.5
CCCCCc1cc2c(c(O)c1C(=O)O)C1C=C(C)CCC1C(C)(C)O2 (centres unmarked) [THCA, Δ9-tetrahydrocannabinolic acid] | 43.3

---

Experiment: 24 hour pharmacokinetic analysis of serum cannabinoids after oral CBD/CBDA rich hemp paste
Details: both, in vivo, po, 1 g of paste

Molecule | Tmax [h]
C=C(C)[C@@H]1CCC(C)=C[C@H]1c1c(O)cc(CCCCC)c(C(=O)O)c1O | 1.6
CCCCCc1cc(O)c(C/C=C(\C)CCC=C(C)C)c(O)c1C(=O)O | 1
C=C(C)[C@@H]1CCC(C)=C[C@H]1c1c(O)cc(CCCCC)cc1O [CBD, cannabidiol, reference compound] | 2

---

Measured half-life by item
Experiment: 24 hour pharmacokinetic analysis of serum cannabinoids after oral CBD/CBDA rich hemp paste
Details: both, in vivo, po, 1 g of paste
Property Label: half-life (min)

Molecule | Value Measured
C=C(C)[C@@H]1CCC(C)=C[C@H]1c1c(O)cc(CCCCC)cc1O [CBD, cannabidiol, reference compound] | 126
CCCCCc1cc(O)c(C/C=C(\C)CCC=C(C)C)c(O)c1C(=O)O | 42

Origin of the recorded values: patent US12440454B2
